Recorded measurements of % hCCR8-Ba/F3 - THP-1 complexes, one per entry
# TEST TARGET: human chemokine (C-C motif) receptor 8 (CCR8) (human, UniProt P51685 1-355); further: test concentration or dose not given here
# Sequence (P51685 whole entry): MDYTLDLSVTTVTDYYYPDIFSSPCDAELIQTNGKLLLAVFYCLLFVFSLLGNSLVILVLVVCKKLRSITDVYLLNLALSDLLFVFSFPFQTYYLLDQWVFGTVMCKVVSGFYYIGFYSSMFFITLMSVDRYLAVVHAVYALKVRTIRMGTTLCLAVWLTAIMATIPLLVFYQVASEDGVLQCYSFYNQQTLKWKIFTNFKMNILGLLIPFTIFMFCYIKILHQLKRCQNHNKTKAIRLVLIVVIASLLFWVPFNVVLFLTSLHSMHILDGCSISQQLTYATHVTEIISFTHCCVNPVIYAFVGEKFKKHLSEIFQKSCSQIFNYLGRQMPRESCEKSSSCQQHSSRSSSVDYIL
# ASSAY EXPLANATION: cell-based or functional assay

{"BINDER": "AB14 (antibody, V domains shown, Hybridoma monoclonal; also called antibody 14; clone 14) VH: EVQLVESGGGLVQPKGSLKLSCAASGFTFNTYAMNWVRQAPGKGLEWVARIRSKSNNYATYYVDSVKDRFTISRDDSQSMLYLQINNLKTEDTAMYYCVRGRELGPYSAMDYWGQGTSVTVSS VL: DIVMTQAAPSVPVTPGESVSISCRSSKSLLHSNGNTYLYWFLQRPGQSPQLLIYRMSNLASGVPDRFSGSGSGTAFTLRISRVEAEDVGLYYCMQHLEYPFTFGGGTKLEIK", "% hCCR8-Ba/F3 - THP-1 complexes / %": 0.97}
{"BINDER": "AB7 (antibody, V domains shown) VH: AVQLVESGGGLVQPKESLKISCAASGFTFSYAAMYWVRQTPGKGLEWVARIRTKPNNYATYYADSVKGRFTISRDDSKSMVYLQMDNLKSEDTAMYYCNIMGITRGYYFDYWGQGVMVTVSS VL: DIQMTQSPSFLSASVGDRVTINCKASQNINRYLNWYQQQLGEAPKLLIYNANNLQTGIPSRFSGSRSGTDFTLTISSLQPEDVATYFCLQHNSWPWTFGGGTKLELK", "% hCCR8-Ba/F3 - THP-1 complexes / %": 2.2}
